All values here come from ChEMBL document CHEMBL5543116.

# testProtocol: Metabolic stability in rat liver microsome assessed as clearance
# Format: ADME
# measurementParameters: liver microsomes
experimentalReadout: CLhep predicted

{"columns": ["smilesEntry", "valueMeasured"],
 "data": [
  ["O=C(COc1ccc(Cl)cc1)NC12CC(c3nnc([C@H]4C[C@@H](OC(F)(F)F)C4)o3)(C1)C2", "< 17 mL/min/kg"]
]}

----------
# testProtocol: Metabolic stability in human liver microsome assessed as hepatic clearance
# Type: ADME
# measurementParameters: liver microsomes
Entries and their CLhep predicted

{"columns": ["compound", "op", "CLhep predicted [mL/min/kg]"],
 "data": [
  ["O=C(COc1ccc(F)cc1)NC12CC(c3nnc([C@H]4C[C@@H](OC(F)(F)F)C4)o3)(C1)C2", "<", 6],
  ["O=C(COc1ccc(Cl)c(F)c1)NC12CC(NC(=O)CO[C@H]3C[C@H](C(F)(F)F)C3)(C1)C2", "=", 13],
  ["O=C(NC12CC(c3nnc([C@H]4C[C@@H](OC(F)(F)F)C4)o3)(C1)C2)c1nc2cc(Cl)ccc2o1", "<", 6],
  ["O=C(COc1ccc(Cl)c(F)c1)NC12CC(N3C[C@H]([C@H]4C[C@@H](OC(F)(F)F)C4)OC3=O)(C1)C2", "=", 15],
  ["O=C(COc1ccc(Cl)c(F)c1)NC12CC(c3cnn([C@H]4C[C@@H](OC(F)(F)F)C4)n3)(C1)C2", "<", 6],
  ["OC(COC1CCC(Cl)C(F)C1)NC12CC(NC(O)CO[C@H]3C[C@@H](C(F)(F)F)C3)(C1)C2 (stereo not given in full)", "=", 13],
  ["O=C(COc1ccc(Cl)cc1)NC12CC(c3nnc([C@H]4C[C@@H](OC(F)(F)F)C4)o3)(C1)C2 [EVETIFATOR]", "<", 6],
  ["O=C(NC12CC(c3nnc([C@H]4C[C@@H](OC(F)(F)F)C4)o3)(C1)C2)C1CCc2cc(Cl)ccc2O1 (stereo not given in full)", "=", 12],
  ["O=C(NC12CC(c3nnc([C@H]4C[C@@H](OC(F)(F)F)C4)o3)(C1)C2)c1cnc2cc(Cl)ccc2c1", "=", 11],
  ["O=C(COc1ccc(C(F)(F)F)cc1)NC12CC(c3nnc([C@H]4C[C@@H](OC(F)(F)F)C4)o3)(C1)C2", "<", 6]
]}

----------
# testProtocol: Half life in rat at 1 mg/kg, iv
# Assay type: ADME, organism-based
# measurementParameters: in vivo

{"columns": ["molecule", "half-life (h)"],
 "data": [
  ["O=C(COc1ccc(Cl)cc1)NC12CC(c3nnc([C@H]4C[C@@H](OC(F)(F)F)C4)o3)(C1)C2 [EVETIFATOR]", 12.5]
]}

----------
Entries and their solubility kinetic
# testProtocol: Kinetic solubility of compound
# Format: physicochemical
# measurementParameters: read-out: Kinetic_solubility

{"columns": ["smilesEntry", "solubility kinetic"],
 "data": [
  ["O=C(COc1ccc(Cl)cc1)NC12CCC(NC(=O)COc3ccc(Cl)cc3)(CC1)C2", "< 1 µM"],
  ["O=C(COc1ccc(Cl)cc1)NC12CCC(NC(=O)COc3ccc(Cl)cc3)(CC1)CC2", "< 1 µM"],
  ["O=C(COc1ccc(Cl)cc1)N[C@H]1CC[C@H](NC(=O)COc2ccc(Cl)cc2)CC1", "< 1 µM"]
]}
